test: NCI Yeast Anticancer Drug Screen. Data for the mlh1 rad18 strain (AID 175); details: S. cerevisiae mlh1 rad18 strain growth inhibition; at 5.0 µM (retest, dose inferred, filed as 0.5); hits give high values
Compounds without any hit were thinned out: in the full panel of roughly 79,000, 15% have a hit.
Mark false (0) for growth inhibition values under 10%, and true (1) for everything at or above.

MOLECULE | ASSIGNED_LABEL
Nc1ccc(SCCCc2c(N)nc(N)nc2N)cc1 | false (0)
O=C(CCCCCCCCCCc1ccccc1)c1ccc(Cl)cc1 | true (1)
CN(C)c1cc2c(cc1[N+](=O)[O-])-c1ccccc1C2O (configuration not stated) | false (0)
O=C(O)c1cccc2c1Oc1c(cccc1C(=O)O)S2 | false (0)
O=C(Oc1cccc2cccnc12)c1cccnc1 | true (1)
CCCCCC(C)C1=NC(C)(C)CC(C)O1 (configuration not stated) | false (0)
Cc1ccc(C(=O)/C=C/c2ccccc2)cc1 | false (0)
CS(=O)c1cc(=O)c2ccccc2s1 (configuration not stated) | true (1)
c1cc[c]([Sn]([O]c2cccc3cccnc23)([c]2ccccc2)[c]2ccccc2)cc1 | true (1)
CCOC(=O)Cc1[nH]c(C(=O)c2ccccc2)cc1C(=O)c1ccccc1 | true (1)
CC1CC(=O)OC(C(=O)c2ccccc2)N1c1ccc(C(F)(F)F)cc1N (configuration not stated) | false (0)
COc1cc(OC)c(C(c2cc3c(cc2O)OCO3)N2CCOCC2)c(OC)c1 (configuration not stated) | false (0)

----------
assay: NCI Yeast Anticancer Drug Screen. Data for the mlh1 rad18 strain (AID 175); settings: S. cerevisiae mlh1 rad18 strain growth inhibition; at 50.0 µM (retest, dose inferred, filed as 5.0); hits give high values
This is part of a sample that, as a whole, favours compounds with a hit. Of some 79,000 tested, about 15% had one in any assay.
Mark rule not met for growth inhibition values under 80%, and rule met for everything at or above.

COMPOUND | ASSIGNED_LABEL
CCOC(=O)Nc1cc2c(cn1)[nH]c1ccccc12 | rule met
CCc1c(O)c(O)c(C(C)=O)c2c(O)c(-c3c(C)cc4c(CC)c(O)c(O)c(C(C)=O)c4c3O)c(C)cc12 | rule met
C/C=C/C(=O)NCC(C(C)C)/[N+]([O-])=N/O (centres undefined) | rule met
COc1cc(C(c2cc3c(cc2O)OCO3)N2CCN(C(c3ccc(O)c(OC)c3)c3cc4c(cc3O)OCO4)CC2)ccc1O (centres undefined) | rule met
O/N=C1\c2ccccc2-c2ccc(Cl)cc21 | rule not met
CC(=O)OCCc1ccc(CCc2ccccc2)cc1 | rule not met
CC(C)c1cc(O)c(C(C)(C)C)cc1Cl | rule not met
O=C(Oc1cccc2cccnc12)c1cccnc1 | rule met
CC1CC(C)CC(C(O)(C(=O)O)C2CC(C)CC(C)C2)C1 (centres undefined) | rule met
CN(C)CC/C(=N\Nc1ccc(Cl)c(Cl)c1)c1ccccc1 | rule met
CCOC(=O)N1CCN(CCCCCCOc2ccc(C(C)(C)C)cc2)CC1 | rule met
CNC1C(O)C(NC)C2OC3(O)C(=O)CC(C)OC3OC2C1O (centres undefined) | rule not met
O=C(NCCCl)Nc1c2ccccc2nc2ccccc12 | rule not met
COc1ccccc1C(=O)[O][Sn]([c]1ccccc1)([c]1ccccc1)[c]1ccccc1 | rule met
O=C1C(C=NC(=S)c2ccccc2)=C(O)c2ccccc21 | rule met
Clc1ccc(CN2COc3c(ccc4cccnc34)C2)cc1 | rule met
COc1ccc2c(C)cc(N/N=C/c3cccc(C)n3)nc2c1 | rule not met
CSc1ncnc2nn(C3OC(COC(=O)c4ccccc4)C(OC(=O)c4ccccc4)C3OC(=O)c3ccccc3)nc12 (centres undefined) | rule not met
Fc1ccc(CSC(=S)Nc2ccc(F)cc2)cc1 | rule not met
CSCSCC(CO)NC(=O)/C=C/c1c(C)[nH]c(=O)[nH]c1=O (centres undefined) | rule not met
C=C(Br)CN1CCC2(c3ccccc3)C(O)C([Se]c3ccccc3)CCC12 (centres undefined) | rule met
Clc1ccc(C2=Nc3ccccc3SC(c3ccc(Cl)c(Cl)c3)C2)c(Cl)c1 (centres undefined) | rule not met
C=C(CN(C)C)C(=O)c1ccc(OC2OC(COC(C)=O)C(OC(C)=O)C(OC(C)=O)C2OC(C)=O)cc1 (centres undefined) | rule not met
CN(C)Cc1cc(C(C)(C)C)cc(C2CCCCC2)c1O | rule met
N#CC(CC(Br)CBr)(c1ccccc1)c1ccccc1 (centres undefined) | rule not met
O=C1C=CC(=Nc2cccc3c2-c2ccccc2C3)O1 | rule met
O=S(=O)(Nc1ccccn1)c1ccc(N=Cc2c3ccccc3nc3cc(Cl)ccc23)cc1 | rule not met
CCCCC(O)CCCC | rule not met
Cc1cccc2ccc3cc(CC(=O)O)c4cccc(C)c4c3c12 | rule met
O=C(O)c1ccc(Br)cc1C(=O)c1ccccc1 | rule not met
CC1C(C(=O)O)CC([N+](=O)[O-])C(Cl)C1[N+](=O)[O-] (centres undefined) | rule met
CCC[CH2][Sn]([CH2]CCC)([O]C(=O)c1cc(OC)c(OC)cc1OC)[O]C(=O)c1cc(OC)c(OC)cc1OC | rule met
Cc1cc2nc3ccc(N(C)C)cc3nc2cc1N | rule met
Cc1cc(O)c(/C=N/C(=S)Nc2ccc(S(N)(=O)=O)cc2)c(=O)o1 | rule not met
CCCCCCCCCCCC[N+](C)(C)C (tested in a mixture with another compound) | rule met
CC(NNC(=S)NCc1ccccc1)c1cc2ccccc2cn1 (centres undefined) | rule met
C=CC1(C)CCC2C(=CCC3C(C)(C(=O)O)CCCC23C)C1 (centres undefined) (tested in a mixture with another compound) | rule met
COC(=O)C1=CCC[C@H]2C1(C)CCC(C)C21CC(c2ccoc2)OC1=O (some centres undefined) | rule met
Clc1ccc(C2SCc3nc4ccccc4n32)c(Cl)c1 (centres undefined) | rule met
COC(=O)c1c(COC(=O)NC(C)C)c2n(c1C)CS(=O)(=O)C2 | rule not met
CC(CC(=O)c1ccc2sc3ccccc3c2c1)C(=O)O (centres undefined) | rule not met
COc1cc2c(cc1OC)C(=O)C(C)(c1ccccc1)NC2 (centres undefined) | rule not met
